# credit: PubChem BioAssay (NCI)

tested on: CAKI-1 renal; assay: NCI-60 one-dose screen, 48 h; conditions: 10 µM unless noted
The panel holds about 83,000 compounds, 20% with a hit somewhere; the sample as a whole holds those more often. Calls of active or inactive are those of the source. Rule for the calls: active = growth percent below 10; inactive = the rest.
Bench note: report the call from true (1) (active), false (0) (inactive)

Lookup: Each compound tested received a call. Report the one for Cc1ccc2c(c1)Sc1c(ccc3ccccc13)N2 .
Found: false (0)

----------
system: U251 CNS; assay: NCI-60 one-dose screen, 48 h; settings: 10 µM unless noted
The panel holds about 83,000 compounds, 20% with a hit somewhere; the sample as a whole holds those more often. The source made the active and inactive calls. How the source made its calls: active means growth percent below 10; inactive means the rest.
Give your call using only these classes: 1 (active), -1 (inactive)

Lookup: What did the test return for CN(C)c1ccc(/C=C/C(=O)c2cccc(Nc3nc(Nc4ccccc4)nc(Nc4ccccc4)n3)c2)cc1 ?
Found: -1

Lookup: Recorded test call requested for Clc1ccc(-c2c3ccc(=[N+]4CCCCC4)cc-3oc3cc(N4CCCCC4)ccc23)cc1
Found: 1

Lookup: // param item: N=c1sc(Cc2ccc(Cl)cc2)cn1CC(=O)c1ccc(F)cc1 ; yields the recorded call
Found: -1
